# Test system: HCC1599
# Assay Procedure: normalised viability (% of control), CellTiter-Blue; higher = more viable cells (100 = DMSO, 0 = benzethonium chloride kill control)
# Cond: incubation time: 72 h
Measured Endpoint: normalised viability (%)
Value expressed in %; do not type the unit.

Which normalised viability is reported with HCC1599 for this entry: Cc1ccc(F)c(NC(=O)Nc2ccc(-c3cccc4[nH]nc(N)c34)cc2)c1 [Linifanib] (0.1 nM) ?
110

Now consider COc1cc(Nc2ncc3c(n2)-c2ccc(Cl)cc2C(c2c(F)cccc2OC)=NC3)ccc1C(=O)O [MLN8237] (1 nM) .
114

Again, but for CN1CC[C@H](c2c(O)cc(O)c3c(=O)cc(-c4ccccc4Cl)oc23)[C@H](O)C1 [Alvocidib] (1 nM)
99.6

Entry to check: CN1CCC(COc2cnc(-c3cccc(Cn4nc(-c5cccc(C#N)c5)ccc4=O)c3)nc2)CC1 (1 nM)
110

// repeat for CO[C@H]1C[C@@H]2CC[C@@H](C)[C@@](O)(O2)C(=O)C(=O)N2CCCC[C@H]2C(=O)O[C@H]([C@H](C)C[C@@H]2CC[C@@H](OC(=O)C(C)(CO)CO)[C@H](OC)C2)CC(=O)[C@H](C)/C=C(\C)[C@@H](O)[C@@H](OC)C(=O)[C@H](C)C[C@H](C)/C=C/C=C/C=C/1C [Temsirolimus] (0.1 nM) and report
99.8

Moving on to N#CC[C@H](C1CCCC1)n1cc(-c2ncnc3[nH]ccc23)cn1 [Ruxolitinib] (1 nM)
101
